TESTED_TARGET: UniProt:Q14432
Sequence (Q14432 whole entry): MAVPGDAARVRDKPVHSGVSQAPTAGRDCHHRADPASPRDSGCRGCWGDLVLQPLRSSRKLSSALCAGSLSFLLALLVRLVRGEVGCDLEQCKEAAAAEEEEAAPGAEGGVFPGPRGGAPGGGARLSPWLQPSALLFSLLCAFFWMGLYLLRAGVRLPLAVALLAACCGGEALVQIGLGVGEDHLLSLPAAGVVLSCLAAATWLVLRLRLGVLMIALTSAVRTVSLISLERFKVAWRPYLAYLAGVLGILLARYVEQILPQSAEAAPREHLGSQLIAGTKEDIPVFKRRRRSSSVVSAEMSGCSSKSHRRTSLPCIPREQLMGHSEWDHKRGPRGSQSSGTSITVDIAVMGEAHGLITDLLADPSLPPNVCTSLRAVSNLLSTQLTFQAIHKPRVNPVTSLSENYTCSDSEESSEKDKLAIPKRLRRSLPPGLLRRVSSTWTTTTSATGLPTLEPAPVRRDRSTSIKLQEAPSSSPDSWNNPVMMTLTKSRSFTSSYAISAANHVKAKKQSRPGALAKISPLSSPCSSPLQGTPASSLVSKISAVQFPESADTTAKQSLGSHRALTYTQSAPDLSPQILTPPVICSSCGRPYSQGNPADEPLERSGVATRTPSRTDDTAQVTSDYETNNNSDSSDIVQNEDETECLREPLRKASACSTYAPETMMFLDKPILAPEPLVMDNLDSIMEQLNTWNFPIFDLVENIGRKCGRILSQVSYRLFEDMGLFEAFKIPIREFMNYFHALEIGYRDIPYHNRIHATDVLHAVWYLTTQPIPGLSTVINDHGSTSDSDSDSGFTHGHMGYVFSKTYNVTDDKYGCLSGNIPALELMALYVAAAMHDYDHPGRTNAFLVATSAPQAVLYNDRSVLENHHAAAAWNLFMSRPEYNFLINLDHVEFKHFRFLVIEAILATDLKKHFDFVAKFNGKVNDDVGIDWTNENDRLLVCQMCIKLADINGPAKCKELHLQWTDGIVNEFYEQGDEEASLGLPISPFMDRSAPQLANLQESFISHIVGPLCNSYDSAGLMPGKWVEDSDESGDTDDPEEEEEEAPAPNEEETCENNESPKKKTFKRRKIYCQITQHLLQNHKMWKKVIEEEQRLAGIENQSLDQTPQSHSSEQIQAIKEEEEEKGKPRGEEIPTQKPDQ
IC50 strictly under 70 nM means 1 (yes); at 70 nM or over means 0 (no).

The examples below pair each entry with its known result.
Cc1cc(-c2ccc(C3=NNC(=O)O[C@H]3C)cc2C(F)(F)F)ccn1 :: 1 (yes)
Cc1ccc(-c2ccc(C3=NNC(=O)O[C@H]3C)cc2C(F)(F)F)cc1F :: 0 (no)
Cc1ccc(-c2ccc(C3=NNC(=O)OC3)cc2F)cc1F :: 0 (no)

Query block: Dear reviewer, please state whether `Cc1cc(C2=NNC(=O)OC2)ccc1-c1ccc(=O)[nH]c1` has IC50 strictly beneath 70 nM.
Result block: 1 (yes)

Query block: What do you get for `Cc1cc(C2=NNC(=O)OC2)ccc1-c1ccnn1C` ?
Result block: 0 (no)

Query block: Record: `Cc1cnccc1-c1ccc(C2=NNC(=O)OC2)cc1F`
Result block: 1 (yes)

Query block: Please give the result for `O=C1NN=C(c2ccc(N3CCC(F)CC3)c(F)c2)CO1` too.
Result block: 0 (no)
